B1: glmS ribozyme (parent)
chain: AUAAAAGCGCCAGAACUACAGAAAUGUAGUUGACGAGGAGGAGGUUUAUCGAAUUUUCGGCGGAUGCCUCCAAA

Variants of: B1
Assay: self-cleavage kobs at 640 uM GlcN6P; higher = faster cleavage; RNA array
Details: with glucosamine-6-phosphate
Fewer inactive variants are shown than the library holds.
measured-attribute: self-cleavage kobs at 640 uM GlcN6P

For orientation, consider the following solved cases.
> print(dat)
      mutation.string  recorded.measurement
1  A6C G35U G37U G38C           < 1e-05 s⁻¹
2           U47A G66C          0.000329 s⁻¹
3      A12C U47C U65C           < 1e-05 s⁻¹
4       G7U G13U A42G           < 1e-05 s⁻¹
5      G44U A64U C68A           < 1e-05 s⁻¹

Look up self-cleavage kobs at 640 uM GlcN6P of A14C U54G and report it.
0.00107 s⁻¹

Hello, please tell me recorded self-cleavage kobs at 640 uM GlcN6P for this one: U46G U65G
0.000467 s⁻¹

Kindly indicate its recorded self-cleavage kobs at 640 uM GlcN6P. Item: A33G G44C
< 1e-05 s⁻¹

# return recorded self-cleavage kobs at 640 uM GlcN6P for input A12U G59C U69A
0.00122 s⁻¹

Respond only with self-cleavage kobs at 640 uM GlcN6P recorded for G44A C68G
< 1e-05 s⁻¹

For the variant G63U A64C , report self-cleavage kobs at 640 uM GlcN6P.
< 1e-05 s⁻¹
